Below is a list of entries, each paired with its recorded Efs201 MIC value.
Test system: Enterococcus faecalis EFS.201 (ATCC 49452)
Assay type: cell-based
Conditions: MHBc with 50 mg/L calcium, 18-20 hours at 37° C.

| mol_smiles | unit_abbrev | Efs201 MIC |
| --- | --- | --- |
| CCCCCCCCOc1ccc(C(=O)N[C@@H](Cc2c[nH]c3ccccc23)C(=O)N[C@H](CC(N)=O)C(=O)N[C@@H](CC(=O)O)C(=O)N[C@@H]2C(=O)NCC(=O)N[C@@H](CCCN)C(=O)N[C@@H](CC(=O)O)C(=O)N[C@H](C)C(=O)N[C@@H](CC(=O)O)C(=O)NCC(=O)N[C@H](CO)C(=O)N[C@@H]([C@H](C)CC(=O)O)C(=O)N[C@@H](CC(=O)c3ccccc3N)C(=O)O[C@@H]2C)cc1 | µg/mL | 0.5 |
| CCCCCCOc1ccc(C(=O)N[C@@H](Cc2c[nH]c3ccccc23)C(=O)N[C@H](CC(N)=O)C(=O)N[C@@H](CC(=O)O)C(=O)N[C@@H]2C(=O)NCC(=O)N[C@@H](CCCN)C(=O)N[C@@H](CC(=O)O)C(=O)N[C@H](C)C(=O)N[C@@H](CC(=O)O)C(=O)NCC(=O)N[C@H](CO)C(=O)N[C@@H]([C@H](C)CC(=O)O)C(=O)N[C@@H](CC(=O)c3ccccc3N)C(=O)O[C@@H]2C)cc1 | µg/mL | 1.0 |
| CCCCCCCCCCOc1ccc(C(=O)N[C@@H](Cc2c[nH]c3ccccc23)C(=O)N[C@H](CC(N)=O)C(=O)N[C@@H](CC(=O)O)C(=O)N[C@@H]2C(=O)NCC(=O)N[C@@H](CCCN)C(=O)N[C@@H](CC(=O)O)C(=O)N[C@H](C)C(=O)N[C@@H](CC(=O)O)C(=O)NCC(=O)N[C@H](CO)C(=O)N[C@@H]([C@H](C)CC(=O)O)C(=O)N[C@@H](CC(=O)c3ccccc3N)C(=O)O[C@@H]2C)cc1 | µg/mL | 0.5 |
